target.or.system: beta-klotho
method.notes: cell-based or functional assay
Below: a set of entries, each annotated with reported EC50, ELK-luciferase assay.
Just the number in nM, nothing appended.

>  <binder>
dually PEGylated FGF21 mutant G120C, R175C (ligand, 20 kDa methoxy-PEG-maleimide on Cys 120 and on Cys 175) MHPIPDSSPLLQFGGQVRQRYLYTDDAQQTEAHLEIREDGTVGGAADQSPESLLQLKALKPGVIQILGVKTSRFLCQRPDGALYGSLHFDPEACSFRELLLEDGYNVYQSEAHGLPLHLPCNKSPHRDPAPRGPARFLPLPGLPPAPPEPPGILAPQPPDVGSSDPLSMVGPSQGCSPSYAS

>  <reading.unit>
nM

>  <EC50, ELK-luciferase assay>
118

$$$$
>  <binder>
dually PEGylated FGF21 mutant K69C, R175C (ligand, 20 kDa methoxy-PEG-maleimide on Cys 69 and on Cys 175) MHPIPDSSPLLQFGGQVRQRYLYTDDAQQTEAHLEIREDGTVGGAADQSPESLLQLKALKPGVIQILGVCTSRFLCQRPDGALYGSLHFDPEACSFRELLLEDGYNVYQSEAHGLPLHLPGNKSPHRDPAPRGPARFLPLPGLPPAPPEPPGILAPQPPDVGSSDPLSMVGPSQGCSPSYAS

>  <reading.unit>
nM

>  <EC50, ELK-luciferase assay>
318

$$$$

Q: I'd like to know its EC50, ELK-luciferase assay. The binder in question is dually PEGylated FGF21 mutant E37C, E91C (ligand, 20 kDa methoxy-PEG-maleimide on Cys 37 and on Cys 91) MHPIPDSSPLLQFGGQVRQRYLYTDDAQQTEAHLEIRCDGTVGGAADQSPESLLQLKALKPGVIQILGVKTSRFLCQRPDGALYGSLHFDPCACSFRELLLEDGYNVYQSEAHGLPLHLPGNKSPHRDPAPRGPARFLPLPGLPPAPPEPPGILAPQPPDVGSSDPLSMVGPSQGRSPSYAS
Result: 36
